Target or test system: KIAA 1361 (baculovirus expressed human KIAA 1361 kinase domain 2-322) (Homo sapiens, UniProt Q7L7X3)
Assay metric: IC50

Read the entry COc1ccc(/C=C/C(=O)N[C@@H](Cc2c[nH]c3ccccc23)C(=O)NC2CCCc3ccccc32)cc1OC (stereo partly shown) and write its reported IC50.
50 to 500 nM

Read the entry "CCc1ccc(-c2ccc(C(=O)NCC(=O)N3Cc4ccccc4C3)cc2)cc1" and write its reported IC50.
> 5000 nM

Read the entry "CCc1ccc(-c2ccc(C(=O)NCC(=O)Nc3nc4ccc(OC)cc4s3)cc2)cc1" and write its reported IC50.
> 5000 nM

Read the entry O=C(NC(C(=O)NC1CCCc2ccccc21)c1cccnc1)c1ccc(-n2cncn2)cc1 (stereo not shown) and write its reported IC50.
50 to 500 nM

Read the entry CCCCCCCc1ccc(C(=O)NCC(=O)NC2CCCc3ccccc32)cc1 (stereo not shown) and write its reported IC50.
50 to 500 nM

Read the entry CC(C)CC(NC(=O)c1ccc(-c2ccccc2)cc1)C(=O)NC1CCCc2ccccc21 (stereo not shown) and write its reported IC50.
500 to 5000 nM

Read the entry CCCCCc1ccc(C(=O)NCC(=O)NC2CCCc3ccccc32)cc1 (stereo not shown) and write its reported IC50.
50 to 500 nM

Read the entry "CCc1ccc(-c2ccc(C(=O)NCC(=O)NCCc3ccccc3)cc2)cc1" and write its reported IC50.
> 5000 nM

Read the entry O=C(CNC(=O)c1ccc(N2CCOCC2)cc1)NC1CCCc2ccccc21 (stereo not shown) and write its reported IC50.
> 5000 nM

Read the entry CC(NC(=O)c1ccc(OCc2ccccc2)cc1)C(=O)NC1CCc2ccccc2C1 (stereo not shown) and write its reported IC50.
50 to 500 nM

Read the entry "CCc1ccc(-c2ccc(C(=O)NCC(=O)NCc3ccccc3C(F)(F)F)cc2)cc1" and write its reported IC50.
50 to 500 nM

Read the entry "COc1ccc2nc(NC(=O)CNC(=O)CCNC(=O)c3ccccc3)sc2c1" and write its reported IC50.
> 5000 nM

Read the entry Cc1csc(NC(=O)CNC(=O)CC(NC(=O)c2ccccc2)c2ccccc2)n1 (stereo not shown) and write its reported IC50.
> 5000 nM

Read the entry CCCCOc1ccc(C(=O)NC(C)C(=O)NC2CCc3ccccc3C2)cc1 (stereo not shown) and write its reported IC50.
50 to 500 nM

Read the entry CCOCCCNC(=O)c1ccc(C(=O)NCC2COc3ccccc3O2)cc1N (stereo not shown) and write its reported IC50.
> 5000 nM

Read the entry CCCCOc1ccc(C(=O)N[C@@H](Cc2c[nH]c3ccccc23)C(=O)NC2CCCc3ccccc32)cc1 (stereo partly shown) and write its reported IC50.
50 to 500 nM

Read the entry O=C(CNC(=O)c1ccc(OC(F)(F)F)cc1)NC1CCCc2ccccc21 (stereo not shown) and write its reported IC50.
500 to 5000 nM

Read the entry O=C(CNC(=O)c1cnc2ccccc2c1)NC1CCCc2ccccc21 (stereo not shown) and write its reported IC50.
> 5000 nM

Read the entry "CCCCc1ccc(NC(=O)N2CCC[C@H]2C(=O)NCc2ccc(Cl)c(Cl)c2)cc1" and write its reported IC50.
50 to 500 nM

Read the entry O=C(CC(NC(=O)c1ccccc1)c1ccccc1)NCC(=O)Nc1nc2ccc(O)cc2s1 (stereo not shown) and write its reported IC50.
50 to 500 nM

Read the entry O=C(CNC(=O)NCCc1ccc(-c2ccccc2)cc1)NC1CCCc2ccccc21 (stereo not shown) and write its reported IC50.
> 5000 nM

Read the entry CCCCCOc1ccc(C(=O)NC(C)C(=O)NC2CCc3ccccc3C2)cc1 (stereo not shown) and write its reported IC50.
50 to 500 nM

Read the entry O=C(NC1CCCc2ccccc21)C(NC(=O)C(c1ccccc1)C1CCCC1)c1cccnc1 (stereo not shown) and write its reported IC50.
50 to 500 nM

Read the entry O=C(CNC(=O)c1ccc(OCc2ccccc2)cc1)NC1CCCc2ccccc21 (stereo not shown) and write its reported IC50.
< 50 nM

Read the entry O=C(CC(NC(=O)c1ccccc1)c1ccccc1)Nc1nc2ccc(O)cc2s1 (stereo not shown) and write its reported IC50.
> 5000 nM

Read the entry "CCc1ccc(-c2ccc(C(=O)NCC(=O)N[C@@H]3CCCc4ccccc43)cc2)cc1" and write its reported IC50.
> 5000 nM

Read the entry CCCCCCOc1ccc(C(=O)NC(C)C(=O)NC2CCc3ccccc3C2)cc1 (stereo not shown) and write its reported IC50.
> 5000 nM

Read the entry O=C(CNCc1ccc(-c2ccccc2)cc1)NC1CCCc2ccccc21 (stereo not shown) and write its reported IC50.
> 5000 nM

---

Target or test system: KIAA 1361 (baculovirus expressed human KIAA 1361 kinase domain 2-322) (Homo sapiens, UniProt Q7L7X3)
Assay metric: IC50

Read the entry "COc1ccc2nc(NC(=O)CNC(=O)Cn3cnc4sc(C)c(C)c4c3=O)sc2c1" and write its reported IC50.
50 to 500 nM

Read the entry O=C(CNC(=O)Nc1cc(C(F)(F)F)cc(C(F)(F)F)c1)NC1CCCc2ccccc21 (centres unmarked) and write its reported IC50.
> 5000 nM

Read the entry "CC(C)c1ccc(NC(=O)N2CCC[C@H]2C(=O)NCc2ccc(Cl)c(Cl)c2)cc1" and write its reported IC50.
50 to 500 nM

Read the entry COc1ccc2nc(NC(=O)CNC(=O)CC(NC(C)=O)c3ccccc3)sc2c1 (centres unmarked) and write its reported IC50.
> 5000 nM

Read the entry O=C(CNC(=O)c1ccc(Oc2ccccc2)cc1)NC1CCCc2ccccc21 (centres unmarked) and write its reported IC50.
50 to 500 nM

---

Target or test system: UniProtKB Q9H2K8
Sequence (Q9H2K8 2-318): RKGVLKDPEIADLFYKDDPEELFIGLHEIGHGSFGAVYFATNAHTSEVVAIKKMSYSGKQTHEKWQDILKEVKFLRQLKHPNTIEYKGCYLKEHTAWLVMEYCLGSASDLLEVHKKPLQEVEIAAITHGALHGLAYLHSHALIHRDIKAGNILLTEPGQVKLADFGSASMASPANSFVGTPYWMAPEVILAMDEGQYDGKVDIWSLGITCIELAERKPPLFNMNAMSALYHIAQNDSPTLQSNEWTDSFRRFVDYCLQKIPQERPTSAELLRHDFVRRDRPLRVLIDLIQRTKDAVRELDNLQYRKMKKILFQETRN
Assay metric: IC50

Read the entry O=C(NC(C(=O)NC1CCCc2ccccc21)c1cccnc1)c1ccc(/N=N/c2ccccc2)cc1 (stereo not drawn) and write its reported IC50.
50 to 500 nM

Read the entry CCc1ccc(-c2ccc(C(=O)NCC(=O)NC(CC)c3ccccc3)cc2)cc1 (stereo not drawn) and write its reported IC50.
50 to 500 nM

Read the entry O=C(CNC(=O)c1ccc(-n2ccnc2)cc1)NC1CCCc2ccccc21 (stereo not drawn) and write its reported IC50.
50 to 500 nM

Read the entry "CCc1ccc(-c2ccc(C(=O)NCC(=O)NCc3ccccc3)cc2)cc1" and write its reported IC50.
> 5000 nM

Read the entry O=C(CNC(=O)c1ccc(C2CCCCC2)cc1)NC1CCCc2ccccc21 (stereo not drawn) and write its reported IC50.
50 to 500 nM

Read the entry O=C(CNC(=O)c1ccc(OC(F)(F)F)cc1)NC1CCCc2ccccc21 (stereo not drawn) and write its reported IC50.
50 to 500 nM

Read the entry CCCCCCCc1ccc(C(=O)NCC(=O)NC2CCCc3ccccc32)cc1 (stereo not drawn) and write its reported IC50.
50 to 500 nM

Read the entry "CCc1ccc(-c2ccc(C(=O)NCC(=O)N[C@H]3CCCc4ccccc43)cc2)cc1" and write its reported IC50.
< 50 nM

Read the entry CCCCOc1ccc(C(=O)NCC(=O)NC2CCCc3ccccc32)cc1 (stereo not drawn) and write its reported IC50.
50 to 500 nM

Read the entry O=C(CNC(=O)c1ccc(OCc2ccccc2)cc1)NC1CCCc2ccccc21 (stereo not drawn) and write its reported IC50.
< 50 nM

Read the entry CCCCOc1ccc(C(=O)N[C@@H](Cc2c[nH]c3ccccc23)C(=O)NC2CCCc3ccccc32)cc1 (stereo partly drawn) and write its reported IC50.
50 to 500 nM

Read the entry "CCc1ccc(-c2ccc(C(=O)NCC(=O)N3CCc4ccccc4C3)cc2)cc1" and write its reported IC50.
> 5000 nM

---

Target or test system: KIAA 1361 (baculovirus expressed human KIAA 1361 kinase domain 2-322) (Homo sapiens)
Sequence (Q7L7X3 2-322): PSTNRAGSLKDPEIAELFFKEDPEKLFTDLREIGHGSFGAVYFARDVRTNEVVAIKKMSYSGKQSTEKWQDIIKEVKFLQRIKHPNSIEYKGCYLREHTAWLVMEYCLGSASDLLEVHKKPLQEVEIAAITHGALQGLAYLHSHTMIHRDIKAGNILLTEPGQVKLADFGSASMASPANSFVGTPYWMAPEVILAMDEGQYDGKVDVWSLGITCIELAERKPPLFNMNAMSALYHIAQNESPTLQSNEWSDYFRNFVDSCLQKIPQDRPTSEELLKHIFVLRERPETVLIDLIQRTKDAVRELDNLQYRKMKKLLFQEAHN
Record form. Attribute: IC50. Fill in for each entry.

Read the entry CCc1ccc(-c2ccc(C(=O)NCC(=O)NC(CC)c3ccccc3)cc2)cc1 (stereo not drawn) [Entry 83] and write its reported IC50.
500 to 5000 nM

Read the entry O=C(CNC(=O)c1ccc(-c2cnco2)cc1)NC1CCCc2ccccc21 (stereo not drawn) [Entry 71] and write its reported IC50.
50 to 500 nM

Read the entry O=C(COc1ccc(-c2nccc(-c3ccccn3)n2)cc1)NCc1ccc(Cl)c(Cl)c1 [Entry 38] and write its reported IC50.
< 50 nM
